Assay: Components of the Cytosolic LPS Sensing Pathway: Gene Identification via Genome-wide siRNA Screen;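 also: robust z of the log signal after scaling to non-targeting control siRNA wells of the plate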
Conditions: RAW264.7 macrophages, IL-1a HTRF, actives lie on both sides, screened at 100 nM (by protocol), cells primed 5 h with Pam3CSK4 first
Description: Non-canonical inflammasome activation by cytosolic LPS is a critical component of the host response to Gram-negative bacterial infection, however we lack a comprehensive understanding of the cellular processes that control this pathway. […] Lipofectamine RNAiMAX Transfection Reagent ([…]; Invitrogen) was added in […] serum-free, antibiotic-free media to plate wells using a Thermo Scientific Matrix WellMate and Microplate Stacker. […] The plates were read on an EnVision plate reader (PerkinElmer). […]
The campaign covered roughly 53,000 sequences. About 3,700 (7%) were called active. This excerpt belongs to a sample that is enriched for actives.
# z-score annotations
Give your answer as a number; write no unit.

Tell me its z-score given GGAAAGAUCUACGAGAUCUTT against Unc5a as the entry.
1.04

Tell me its z-score given GGGAGACAAUCGUUUUAGCTT against Tgfbi as the entry.
0.698

Tell me its z-score given GGAGUAAAUUGAGAAACCATT against Acsm5 as the entry.
-0.149

Tell me its z-score given GGCACAGUUCCUCAGUAUGTT against Hspbap1 as the entry.
1.76

Tell me its z-score given GGUGUGUUCAGGAGUUGAUTT against Col12a1 as the entry.
0.505

Continuing:
Tell me its z-score given GGGCUGUGAUCAAACAUGGTT against Ano9 as the entry.
-1.38

Tell me its z-score given GCUAUUGGGACUUAGAACATT against Slc26a9 as the entry.
0.191

Tell me its z-score given GGCACAUUCAUAGAACAAGTT against Znrd1as as the entry.
2.01

Tell me its z-score given GGUUAGAAUAUGCAGAACATT against Arntl as the entry.
-0.525

Tell me its z-score given GGAACAUCAUCCACUGGAATT against Crhr1 as the entry.
6

Tell me its z-score given GGGAGCUGAACACAAACACTT against Trav3-3 as the entry.
0.191

* * *

experiment: Components of the Cytosolic LPS Sensing Pathway: Gene Identification via Genome-wide siRNA Screen; details: RAW264.7 macrophages, IL-1a HTRF, actives lie on both sides, screened at 100 nM (by protocol), cells primed 5 h with Pam3CSK4 first;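 also: robust z of the log signal after scaling to non-targeting control siRNA wells of the plate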
Out of some 53,000 sequences screened, about 3,700 (7%) were called active. This excerpt belongs to a sample that is enriched for actives.
One threshold, -0.5, splits the recorded z-score values: lower ones are satisfied, equal or higher ones are not satisfied.

Past entries and their recorded results:
Report whether reported z-score is lower than -0.5 (strictly) for GCUAGAGGAUGGCUGAGCUTT against Poll
satisfied

Report whether reported z-score is lower than -0.5 (strictly) for GGACUAGCAAGGCAAGUGATT against Dnase2b
not satisfied

Report whether reported z-score is lower than -0.5 (strictly) for GGGAAUUUACCAAGUACCCTT against Nedd9
not satisfied

Report whether reported z-score is lower than -0.5 (strictly) for GGGAAGCAUGCAGAACAGCTT against Parg
satisfied

Report whether reported z-score is lower than -0.5 (strictly) for GGAGCUGGAAGAGUGGUAUTT against Clta
satisfied

Continuing:
Report whether reported z-score is lower than -0.5 (strictly) for GGAAAAAGCAAAUUGAGGATT against Uchl1
satisfied

Report whether reported z-score is lower than -0.5 (strictly) for GAUCCUCACGAAAUAGGUATT against Olfr1372-ps1
not satisfied

Report whether reported z-score is lower than -0.5 (strictly) for GGUUUGAAAUAUUGUGGAUTT against Spdye4b
satisfied

Report whether reported z-score is lower than -0.5 (strictly) for GCAUACGAUAUCACCAUAUTT against Dsg1a
not satisfied

Report whether reported z-score is lower than -0.5 (strictly) for GCCAUUCACGACCCACUACTT against Olfr1095
not satisfied

Report whether reported z-score is lower than -0.5 (strictly) for CGGCACACUAAGAAACGGATT against Odf3l1
not satisfied

Report whether reported z-score is lower than -0.5 (strictly) for GGAUCACAUCGAGAAAACCTT against Utrn
satisfied
